Molecular target: Melanocortin receptor 5 (Homo sapiens, UniProt P33032)
Sequence (P33032 whole entry): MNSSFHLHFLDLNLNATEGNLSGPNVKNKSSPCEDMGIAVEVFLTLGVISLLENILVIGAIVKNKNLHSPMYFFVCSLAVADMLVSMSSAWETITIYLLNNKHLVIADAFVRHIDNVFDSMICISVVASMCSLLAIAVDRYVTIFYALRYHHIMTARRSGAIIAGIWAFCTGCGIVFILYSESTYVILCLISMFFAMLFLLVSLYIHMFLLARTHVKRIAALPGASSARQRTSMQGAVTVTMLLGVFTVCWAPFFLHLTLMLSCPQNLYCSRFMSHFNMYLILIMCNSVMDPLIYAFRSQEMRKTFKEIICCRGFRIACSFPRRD
Property Measured: pKi
Give bare numbers, as −log10 of the molar value.

Cc1ccc(N2CCN(C(=O)[C@H](C)Cc3ccc(Cl)cc3)CC2)c([C@H](CC(C)C)NC(=O)CCN(C)C)c1 :: 6.15

Shift focus to the following entry.
**Query** Value lookup for pKi; key = CC(C)C[C@H](NC(=O)CCN(C)C)c1cc(Cl)ccc1N1CCN(C(=O)[C@H](C)Cc2ccc(Cl)cc2)CC1
**Result** 6.22

###

Assay: Cmax in dog at 10 mg/kg, po
Assay type: ADME, organism-based, Canis lupus familiaris
Set-up: dose 10 mg/kg, route oral
Conditions: in vivo
Property Measured: Cmax (ng/mL)
Give bare numbers, in ng/mL.

**Query** Value lookup for Cmax; key = CC(C)C[C@H](NC(=O)CCN(C)C)c1cc(Cl)ccc1N1CCN(C(=O)[C@H](C)Cc2ccc(Cl)cc2)CC1
**Result** 142

###

Experiment: Bioavailability in monkey at 10 mg/kg, po
Type: ADME, organism-based, Macaca mulatta
Conditions: rhesus monkey, in vivo
Property Measured: bioavailability
Include the unit right after the number.

**Query** Value lookup for bioavailability; key = CC(C)C[C@H](NC(=O)CCN(C)C)c1cc(Cl)ccc1N1CCN(C(=O)[C@H](C)Cc2ccc(Cl)cc2)CC1
**Result** 13.1%

###

Biological target: UniProtKB P33261
Sequence (P33261 whole entry): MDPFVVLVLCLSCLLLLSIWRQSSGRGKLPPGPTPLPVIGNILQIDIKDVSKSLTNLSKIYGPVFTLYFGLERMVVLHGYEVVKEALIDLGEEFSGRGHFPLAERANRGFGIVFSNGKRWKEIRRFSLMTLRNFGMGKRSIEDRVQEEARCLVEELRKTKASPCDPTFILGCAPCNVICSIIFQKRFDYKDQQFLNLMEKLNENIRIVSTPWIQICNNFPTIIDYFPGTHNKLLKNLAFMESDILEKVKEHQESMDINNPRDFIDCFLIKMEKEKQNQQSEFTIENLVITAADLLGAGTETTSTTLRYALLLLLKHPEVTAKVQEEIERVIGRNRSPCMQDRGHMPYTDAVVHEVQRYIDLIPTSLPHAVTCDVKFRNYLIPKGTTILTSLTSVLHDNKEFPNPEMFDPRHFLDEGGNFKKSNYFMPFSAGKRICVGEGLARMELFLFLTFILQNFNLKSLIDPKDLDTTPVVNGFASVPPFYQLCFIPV
pIC50: −log10 of the molar value.
Property Measured: pIC50

**Query** Value lookup for pIC50; key = CC(C)C[C@H](NC(=O)CCN(C)C)c1cc(Cl)ccc1N1CCN(C(=O)[C@H](C)Cc2ccc(Cl)cc2)CC1
**Result** < 5.00

###

Molecular target: UniProt:P56450
Sequence (P56450 whole entry): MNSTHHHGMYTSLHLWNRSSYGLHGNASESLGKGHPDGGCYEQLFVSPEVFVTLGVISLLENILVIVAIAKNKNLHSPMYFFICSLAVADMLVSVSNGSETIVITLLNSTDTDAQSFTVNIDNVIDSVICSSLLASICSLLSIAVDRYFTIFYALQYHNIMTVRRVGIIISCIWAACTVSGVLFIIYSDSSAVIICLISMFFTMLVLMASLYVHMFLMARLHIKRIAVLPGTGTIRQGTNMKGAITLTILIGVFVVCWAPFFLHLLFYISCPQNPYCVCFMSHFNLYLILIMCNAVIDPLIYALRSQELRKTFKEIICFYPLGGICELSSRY
Property Measured: pKi
Numbers only, as −log10 of the molar value.

**Query** Value lookup for pKi; key = CC(C)C[C@H](NC(=O)CCN(C)C)c1cc(Cl)ccc1N1CCN(C(=O)[C@H](C)Cc2ccc(Cl)cc2)CC1
**Result** 7.74

###

Assay: Cmax in Sprague-Dawley rat at 10 mg/kg, po
Type: ADME, organism-based
Design: dose 10 mg/kg, route oral
Conditions: in vivo
For each of the compounds below, state its Cmax.
One number for each entry, in µg/mL.

Here is how some compounds turned out for Cmax.
CC(C)C[C@H](NC(=O)CCN(C)C)c1cc(Cl)ccc1N1CCN(C(=O)[C@H](C)Cc2ccc(Cl)cc2)CC1 :: 0.163
Cc1ccc([C@@H](CC(C)C)NC(=O)CCN(C)C)c(N2CCN(C(=O)[C@H](C)Cc3ccc(Cl)cc3Cl)CC2)n1 :: 0.06
Cc1ccc(N2CCN(C(=O)[C@@H](Cc3ccc(Cl)cc3Cl)N3CCCC3=O)CC2)c([C@H](CC(C)C)NC(=O)CCN(C)C)c1 :: 0.04

Shift focus to the following entry.
**Query** Value lookup for Cmax; key = Cc1ccc(N2CCN(C(=O)[C@H](C)Cc3ccc(Cl)cc3)CC2)c([C@H](CC(C)C)NC(=O)CCN(C)C)c1
**Result** 0.196

###

For each of the compounds below, state its pKi.
Biological target: Melanocortin receptor 4 (Homo sapiens)
Sequence (P32245 whole entry): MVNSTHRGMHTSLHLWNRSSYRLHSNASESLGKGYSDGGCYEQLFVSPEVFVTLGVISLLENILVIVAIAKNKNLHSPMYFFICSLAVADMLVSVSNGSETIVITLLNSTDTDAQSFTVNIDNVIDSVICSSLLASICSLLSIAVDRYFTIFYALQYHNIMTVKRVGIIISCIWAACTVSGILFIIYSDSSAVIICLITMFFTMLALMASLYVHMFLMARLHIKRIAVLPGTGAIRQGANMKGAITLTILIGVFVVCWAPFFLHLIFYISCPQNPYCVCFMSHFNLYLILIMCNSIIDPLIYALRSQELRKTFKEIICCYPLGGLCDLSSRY
Numbers only, as −log10 of the molar value.

Here is how some compounds turned out for pKi.
CC(C)C[C@@H](N)c1cccnc1N1CCN(C(=O)CCc2ccc(Cl)cc2Cl)CC1 :: 6.59
Cc1ccc(N2CCN(C(=O)[C@H](C)Cc3ccc(Cl)cc3)CC2)c([C@H](CC(C)C)NC(=O)CCN(C)C)c1 :: 8.43

Shift focus to the following entry.
**Query** Value lookup for pKi; key = CC(C)C[C@H](N)c1cc(C(F)(F)F)ccc1N1CCN(C(=O)CCc2ccc(Cl)cc2Cl)CC1
**Result** 7.12
